Origin of values: patent US20250154277A1

EXPERIMENTAL_SYSTEM: T1, human 5T4-His protein (human, UniProt Q13641 32-355)
T1 construct: also called recombinant 5T4 protein (human 5T4-his tag); human 5T4 protein; not shown: His tag
T1 sequence (looked up): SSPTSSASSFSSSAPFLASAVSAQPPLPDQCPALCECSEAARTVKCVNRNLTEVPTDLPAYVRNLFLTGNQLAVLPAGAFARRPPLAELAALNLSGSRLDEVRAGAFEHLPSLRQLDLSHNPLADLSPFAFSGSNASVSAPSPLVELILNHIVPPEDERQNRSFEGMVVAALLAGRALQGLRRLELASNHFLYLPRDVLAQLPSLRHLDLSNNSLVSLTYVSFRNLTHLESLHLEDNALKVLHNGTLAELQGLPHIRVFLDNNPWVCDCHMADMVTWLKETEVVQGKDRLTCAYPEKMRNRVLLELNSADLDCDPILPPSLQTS
ASSAY_INFO: SPR Biacore, Protein A capture
PARAMETER: Kd
Remember to follow the number with its unit.

BINDER	PARAMETER	OBS_VALUE
Hu14G12-23 (antibody, V domains shown, humanized) VH: QVQLVQSGAEVKKPGSSVKVSCKASGYAFSSSWMNWVRQAPGQGLEWMGRIYREDGHTNYNGKFKGRVTITADKSTTTAYMELSSLRSEDTAVYYCANGGAMDYWGQGTLVTVSS VL: DIQMTQSPSSLSASVGDRVTITCRASQDISNYLNWYQQKPGKAPKLLIYYTSRLHSGVPSRFSGSGSGTDYTFTISSLQPEDIATYFCQQDNTLPWTFGGGTKVEIK	Kd	2.58 nM
Hu14G12-16 (antibody, V domains shown, humanized) VH: EVQLVQSGAEVKKPGATVKISCKASGYAFSSSWMNWVKQAPGKGLEWIGRIYREDGHTNYNGKFKGRATITADTSTTTAYMELSSLRSEDSAVYFCANGGAMDYWGQGTLVTVSS VL: DIQMTQSPSSLSASVGDRVTISCRASQDISNYLNWYQQKPGKTVKLLIYYTSRLHSGVPSRFSGSGSGTDYTFTISSLQPEDIATYFCQQDNTLPWTFGGGTKLEIK	Kd	1.85 nM
Hu14G12-6 (antibody, V domains shown, humanized) VH: EVQLVQSGAEVKKPGATVKISCKVSGYAFSSSWMNWVQQAPGKGLEWIGRIYREDGHTNYNGKFKGRVTITADTSTDTAYMELSSLRSEDTAVYFCANGGAMDYWGQGTLVTVSS VL: DIQMTQSPSSLSASVGDRVTITCRASQDISNYLNWYQQKPGKAPKLLIYYTSRLHSGVPSRFSGSGSGTDYTFTISSLQPEDIATYFCQQDNTLPWTFGGGTKLEIK	Kd	2.68 nM
Hu14G12-44 (antibody, V domains shown, humanized) VH: QVQLVQSGAEVKKPGASVKVSCKASGYAFSSSWMNWVRQAPGQGLEWMGRIYREDGHTNYNGKFKGRVTMTADKSTTTAYMELRSLRSDDTAVYYCANGGAMDYWGQGTLVTVSS VL: DIQMTQSPSSLSASVGDRVTITCRASQDISNYLNWYQQKPGKAPKLLIYYTSRLHSGVPSRFSGSGSGTDYTLTISSLQPEDIATYFCQQDNTLPWTFGGGTKVEIK	Kd	1.41 nM
Hu14G12-3 (antibody, V domains shown, humanized) VH: EVQLVQSGAEVKKPGATVKISCKVSGYAFSSSWMNWVQQAPGKGLEWMGRIYREDGHTNYNGKFKGRVTITADTSTDTAYMELSSLRSEDTAVYYCATGGAMDYWGQGTLVTVSS VL: DIQMTQSPSSLSASVGDRVTISCRASQDISNYLNWYQQKPGKAVKLLIYYTSRLHSGVPSRFSGSGSGTDFTFTISSLQPEDIATYFCQQDNTLPWTFGGGTKLEIK	Kd	27.5 nM

Report Kd for each item below.
1. Hu14G12-14 (antibody, V domains shown, humanized) VH: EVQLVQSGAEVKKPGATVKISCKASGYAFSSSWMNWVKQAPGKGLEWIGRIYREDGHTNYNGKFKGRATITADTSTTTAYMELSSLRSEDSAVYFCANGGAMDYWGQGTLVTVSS VL: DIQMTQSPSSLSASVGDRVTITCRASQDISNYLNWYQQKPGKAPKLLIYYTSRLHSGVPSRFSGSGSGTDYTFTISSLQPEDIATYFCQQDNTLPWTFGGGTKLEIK
2. Hu14G12-9 (antibody, V domains shown, humanized) VH: EVQLVQSGAEVKKPGATVKISCKVSGYAFSSSWMNWVKQAPGKGLEWIGRIYREDGHTNYNGKFKGRATITADTSTTTAYMELSSLRSEDTAVYFCANGGAMDYWGQGTLVTVSS VL: DIQMTQSPSSLSASVGDRVTITCRASQDISNYLNWYQQKPGKAPKLLIYYTSRLHSGVPSRFSGSGSGTDFTFTISSLQPEDIATYYCQQDNTLPWTFGGGTKLEIK

Result ::
1: 3.39 nM; 2: 5.31 nM

Report Kd for each item below.
1. Hu14G12-47 (antibody, V domains shown, humanized) VH: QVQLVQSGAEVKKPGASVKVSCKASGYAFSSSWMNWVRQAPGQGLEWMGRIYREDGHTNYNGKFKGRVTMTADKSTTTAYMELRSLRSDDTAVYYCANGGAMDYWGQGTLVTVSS VL: DIQMTQSPSTLSASVGDRVTITCRASQDISNYLNWYQQKPGKAPKLLIYYTSRLHSGVPSRFSGSGSGTEYTLTISSLQPDDIATYFCQQDNTLPWTFGGGTKVEIK
2. Hu14G12-7 (antibody, V domains shown, humanized) VH: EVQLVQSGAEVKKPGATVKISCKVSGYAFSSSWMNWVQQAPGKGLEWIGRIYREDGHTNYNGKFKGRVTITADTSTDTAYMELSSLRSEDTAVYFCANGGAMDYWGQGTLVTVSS VL: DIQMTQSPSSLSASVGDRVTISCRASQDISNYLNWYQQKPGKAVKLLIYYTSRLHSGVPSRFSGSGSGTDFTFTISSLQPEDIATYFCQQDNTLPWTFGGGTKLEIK
3. Hu14G12-13 (antibody, V domains shown, humanized) VH: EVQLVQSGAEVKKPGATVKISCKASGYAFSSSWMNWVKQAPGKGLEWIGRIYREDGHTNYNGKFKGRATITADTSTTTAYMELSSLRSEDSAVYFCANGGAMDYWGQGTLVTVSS VL: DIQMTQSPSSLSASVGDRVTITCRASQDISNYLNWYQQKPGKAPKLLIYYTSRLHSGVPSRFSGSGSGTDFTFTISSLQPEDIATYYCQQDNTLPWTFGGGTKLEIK

Result ::
1. 2.1 nM
2. 2.52 nM
3. 6.12 nM
